- study.system: T1, 017-mut3 peptide (…)/HLA-A*02:01 complex on T2 cells (human)
- T1 construct: Alanine mutant at position 3
- assay.name: flow cytometry, phage on peptide-loaded T2 cells
attribute.measured: MFI
Just the number, please, no unit after it.

The following binders have reported results that may help.
# binder, assay.result
records = [
    ("EXT017-17 scFv phage clone (scFv, fusion to the phage coat protein not described; also called EXT017-17 phage; phage clone #17) scFv: QSVLTQPPSVSGAPGQRVTISCTGSSSNIGAGYDVHWYQQLPGTAPKLLIYGNSNRPSGVPDRFSGSKSGTSASLAITGLQAEDEADYYCQSYDSSLSGYVFGTGTKVTVLGSRGGGGSGGGGSGGGGSLEMAEVQLVQSGAEVKKPGSSVKVSCKASGDTFSRYAISWVRQAPGQGLEWMGRIIPIFGTPNYAQKFQGRVTITADEFTSTAYMELSSLRSEDTAMYYCARSIYRYSEYDHWGQGTLVTVSSTSGQAGQHHHHHHGAYPYDVPDYAS", 741),
    ("EXT017-20 scFv phage clone (scFv, full-length scFv with His+HA tags; also called EXT017-20 phage) scFv: QSVVTQPPSVSAAPGQKVTISCSGSSSNIGAGYDVHWYQQLPGTAPKLLIYGNSNRPSGVPDRFSGSKSGTSASLAITGLQAEDEADYYCQSYDSSLSGSVFGGGTKLTVLGSRGGGGSGGGGSGGGGSLEMAEVQLVQSGAEVKKPGSSVKVSCKASGGTFSSYAISWVRQAPGQGLEWMGGIIPIFGTANYAQKFQGRVTITADESTSTAYMELSSLRSEDTAVYYCARYSYKYGELDTWGQGTLVTVSSTSGQAGQHHHHHHGAYPYDVPDYAS", 96.4),
    ("EXT017-32 scFv phage clone (scFv, also called EXT017-32 phage; phage clone #32) scFv: QSVLTQPPSVSVAPGKTARITCGGNNIGSKSVHWYQQKPGQAPVLVIYYDSDRPSGIPERFSGSNSGNTATLTISRVEAGDEADYYCQVWDSSSDHYVFGTGTKVTVLGSRGGGGSGGGGSGGGGSLEMAEVQLVESGGGVVQPGRSLRLSCAASGFTFNNHAMHWVRQAPGKGLEWVAVISFDGDDKFYADSVKGRFTISRDNSRNTLFLQMNNLRPEDTAVYYCSRDPYHFASGSYSYFDYWGQGTLVTVSSTSGQAGQHHHHHHGAYPYDVPDYAS", 21000),
    ("EXT017-27 scFv phage clone (scFv, full-length scFv with His+HA tags; also called EXT017-27 phage; phage clone #27) scFv: QAVLTQPPSVSVAPGKTARLTCGGNNIGSESVHWYQQKPGQAPLLVVYDDDDRPSGIPERFSGSNSGNTATLTISRVEAGDEADYYCQVWDRSSDHWFFGGGTKLTVLGSRGGGGSGGGGSGGGGSLEMAQVQLVQSGAEVKKPGASVKVSCKASGYTFTNYYIHWVRQAPGQGLEWMGIIRPSGGITNYAQKFQGRVSMTRDTSTSTVYMELSSLRSEDTAVYYCARSWDYFASNDFWGQGTLVTVSSTSGQAGQHHHHHHGAYPYDVPDYAS", 2260),
    ("EXT017-54 scFv phage clone (scFv, full-length scFv with His+HA tags; also called EXT017-54 phage) scFv: QAVLTQPPSLSGGPRQRVTISCSGSTSNIGKNGVSWYQQLPGKAPKLLIYNDHLLSSGVSDRFSGSKSGTSASLAISGLQSDDEADYYCATWDDTLDLPLFGGGTKVTVLGSRGGGGSGGGGSGGGGSLEMAQMQLVQSGAEVEKPGASVKLSCKASGGTFSSYAISWVRQAPGQGLEWMGGIIPIFGTANYAQKFQGRVTITADESTSTAYMELSSLRSEDTAVYYCARPSYYSIKSAWDHWGQGTLVTVSSTSGQAGQHHHHHHGAYPYDVPDYAS", 7780),
]

Lab note: next binder to report on.
Incoming: Item EXT017-28 scFv phage clone (scFv, full-length scFv with His+HA tags; also called EXT017-28 phage; phage clone #28) scFv: QSVLTQPPSVSGAPGQRVTISCTGSSSNIGAGYDVHWYQQLPGTAPKLLIYGNSDRPSGVPDRFSGSKSGTSASLAITGLQAEDEADYYCQSYDSSLSGYVFGTGTKVTVLGSRGGGGSGGGGSGGGGSLEMAQMQLVQSGAEVKKPGSSVKVSCKASGGTFSTYAISWVRQAPGQGLEWMGGIIPIFGTANYAQKFQGRVTITADKSTSTAYMEVRNLRSEDTAVYYCARAEYVYGEYDQWGQGTLVTVSSTSGQAGQHHHHHHGAYPYDVPDYAS has what recorded MFI?
Outgoing: 13400

Data provenance is patent US20190284262A1.
